Data origin, for the record: PubChem BioAssay AID1903

inhibition by entry:
biological target: Large T antigen (Simian virus 40) (UniProt P03070); test: SV40 large T antigen inhibitors, biochemical (AID 1903); conditions: SV40 large T antigen ATPase/helicase inhibition assay; at 20 µM; stronger effect = higher value
Sequence (P03070 whole entry, looked up): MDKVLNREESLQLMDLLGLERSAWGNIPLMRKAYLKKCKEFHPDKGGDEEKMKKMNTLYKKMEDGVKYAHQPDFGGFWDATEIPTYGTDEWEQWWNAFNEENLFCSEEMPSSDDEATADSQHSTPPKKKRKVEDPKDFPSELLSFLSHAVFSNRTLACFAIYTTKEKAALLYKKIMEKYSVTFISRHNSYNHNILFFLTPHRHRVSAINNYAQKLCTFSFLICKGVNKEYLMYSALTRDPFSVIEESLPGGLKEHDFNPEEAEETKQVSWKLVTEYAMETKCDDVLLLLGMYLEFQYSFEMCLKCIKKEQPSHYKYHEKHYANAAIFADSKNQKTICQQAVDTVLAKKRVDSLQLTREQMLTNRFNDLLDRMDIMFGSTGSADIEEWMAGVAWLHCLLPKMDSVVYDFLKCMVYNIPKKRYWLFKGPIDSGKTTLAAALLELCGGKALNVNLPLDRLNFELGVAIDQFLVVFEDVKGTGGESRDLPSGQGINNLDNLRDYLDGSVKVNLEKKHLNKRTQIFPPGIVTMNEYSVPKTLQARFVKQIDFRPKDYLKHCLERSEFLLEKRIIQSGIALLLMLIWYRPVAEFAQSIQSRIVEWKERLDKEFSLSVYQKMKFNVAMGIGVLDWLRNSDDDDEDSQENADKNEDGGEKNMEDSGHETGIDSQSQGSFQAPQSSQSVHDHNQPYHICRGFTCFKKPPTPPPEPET
About 1,200 (0.39%) of roughly 310,000 compounds were called active. Not all results are given here. Entries with a potency or affinity are not part of this list.
Record the value in %, omitting the unit from your answer.

| compound | test.system | inhibition / % |
| --- | --- | --- |
| CCCc1cc(=O)[nH]c(N/N=C/C=C\c2ccccc2)n1 | Large T antigen (Simian virus 40) (UniProt P03070) | 6.47 |
| COc1ccc(OC)c(CCNC(=O)c2ccc3c(c2)N(Cc2ccccc2)CCS3)c1 | Large T antigen (Simian virus 40) (UniProt P03070) | -0.13 |
| Cc1snc(SCc2ccc(F)cc2)c1C#N | Large T antigen (Simian virus 40) (UniProt P03070) | 10.8 |
| O=[N+]([O-])C1=C(Nc2cccc3ccccc23)CS(=O)(=O)C1 | Large T antigen (Simian virus 40) (UniProt P03070) | 0.61 |
| O=C(NC(NCC1CCCO1)C(Cl)(Cl)Cl)c1cccc2ccccc12 (stereo unspecified) | Large T antigen (Simian virus 40) (UniProt P03070) | 2.66 |

As a next step, examine the compound that follows.
Data request: Specify reported inhibition for the compound shown: "CCOc1ccc(CCNC(=O)C2CCN(c3nnc(-n4cccc4)s3)CC2)cc1"
Data returned: 7.09

---

molecular target: Large T antigen (Simian virus 40); test: SV40 large T antigen inhibitors, biochemical (AID 1903); conditions: SV40 large T antigen ATPase/helicase inhibition assay; at 20 µM; stronger effect = higher value
Screen size: about 310,000 compounds; about 1,200 (0.39%) were called active. Not all results are given here. Entries with a potency or affinity are not part of this list.
test.readout: inhibition (%)
Record the value in %, omitting the unit from your answer.

Record excerpt, results attached:
| compound | test.system | inhibition [%] |
| --- | --- | --- |
| Cc1ccc(C(=O)CSc2nnc(-c3cccnc3)n2N)cc1 | Large T antigen (Simian virus 40) | 13.6 |
| CCOC(=O)C1=C(C)N=c2s/c(=C3/C(=O)Nc4ccccc43)c(=O)n2C1c1ccc(C)cc1 (centres undefined) | Large T antigen (Simian virus 40) | 24.6 |
| Cc1nn(-c2ccccc2)c(N)c1N=Nc1ccc(Cl)cc1 | Large T antigen (Simian virus 40) | 5.29 |
| O=C1COc2ccc(C(=O)COC(=O)c3sc4ccccc4c3Cl)cc2N1 | Large T antigen (Simian virus 40) | 7.71 |
| COc1ccc2c(c1)S(=O)(=O)c1ccccc1N2 | Large T antigen (Simian virus 40) | 1.87 |

As a next step, examine the compound that follows.
Data request: Specify reported inhibition for the compound shown: "O=C(CCCCCN1C(=O)c2ccccc2C1=O)NCCc1nc2ccccc2[nH]1"
Data returned: 5.03

---

inhibition by entry:
biological target: Large T antigen (Simian virus 40) (UniProt P03070); assay: SV40 large T antigen inhibitors, biochemical (AID 1903); conditions: SV40 large T antigen ATPase/helicase inhibition assay; at 20 µM; stronger effect = higher value
About 1,200 (0.39%) of roughly 310,000 compounds were called active. A selection follows. Potency and affinity values are given separately.
Record the value in %, omitting the unit from your answer.

Record excerpt, results attached:
| compound | units.of.measure | quantitative.readout |
| --- | --- | --- |
| CSCCC(NC(N)=O)C(=O)Nc1cccc(S(=O)(=O)N2CCOCC2)c1 (configuration not stated) | % | 2.59 |
| CCC(C)NC(=O)CCc1nnc2ccc(N3CCC(C)CC3)nn12 (configuration not stated) | % | 6.91 |
| CCc1cccc(C)c1NC(=O)c1ccc2c(c1)CCN2S(C)(=O)=O | % | 1.63 |

Data request: Specify reported inhibition for the compound shown: "C=CCNS(=O)(=O)c1ccc(OC)c(C)c1"
Data returned: 1.44

Data request: Specify reported inhibition for the compound shown: O=C(NCc1ccccn1)C1CCCN(S(=O)(=O)c2cccc3nsnc23)C1 (configuration not stated)
Data returned: 9.56

Data request: Specify reported inhibition for the compound shown: "COc1ccc(OC)c(-c2csc3nnc(SCC(=O)Nc4ccc(NC(C)=O)cc4)n23)c1"
Data returned: 3.77

Data request: Specify reported inhibition for the compound shown: "COc1ccc(-c2cc(C(F)(F)F)nc(N3CCN(C)CC3)n2)cc1"
Data returned: 1.63

---

molecular target: Large T antigen (Simian virus 40) (UniProt P03070); experiment: SV40 large T antigen inhibitors, biochemical (AID 1903); conditions: SV40 large T antigen ATPase/helicase inhibition assay; at 20 µM; stronger effect = higher value
Hit rate of the full screen: of about 310,000 compounds, about 1,200 (0.39%) were called active. The list is a sample of the results. Entries with a potency or affinity are not part of this list.
test.readout: inhibition (%)
Record the value in %, omitting the unit from your answer.

Record excerpt, results attached:
| substance.smiles | quantitative.readout |
| --- | --- |
| Nc1ccc(-c2nc3ccc([N+](=O)[O-])cc3[nH]2)cc1 | 1.62 |
| O=C(Nc1ccc(F)cc1)c1ccc2nc[nH]c2c1 | 7.49 |
| O=C(CSc1ccc(F)cc1)NNC(=O)c1ccccc1Br | 7.8 |
| CCCOc1ccc(C(=O)Nc2ccc(N(C)C)cc2)cc1 | 32 |

Data request: Specify reported inhibition for the compound shown: "COc1cc(Cl)c(S(=O)(=O)N2CCCC2)cc1Cl"
Data returned: 17.9

Data request: Specify reported inhibition for the compound shown: "CN(CC(=O)Nc1ccc(Cl)cc1)CC(=O)Nc1ccc(F)c(F)c1F"
Data returned: -109

Data request: Specify reported inhibition for the compound shown: "Cc1ccccc1NC(=O)Cn1nnc2sc3c(c2c1=O)CC(C)(C)OC3"
Data returned: 7.47

Data request: Specify reported inhibition for the compound shown: "Cc1cccc(-c2nnc(NC(=O)c3ccco3)s2)c1"
Data returned: 8.94

Data request: Specify reported inhibition for the compound shown: "CC(C)Oc1ccc(NC(=O)c2ccncc2)cc1"
Data returned: 3.7

Data request: Specify reported inhibition for the compound shown: "O=C(Nc1ccc(Br)cc1)c1cccc(N2C(=O)CCC2=O)c1"
Data returned: 7.57

Data request: Specify reported inhibition for the compound shown: "O=C(Cn1ccc2ccccc2c1=O)NCC(=O)N1CCN(c2ccccc2F)CC1"
Data returned: 5.42

Data request: Specify reported inhibition for the compound shown: "CN(C)c1ccc(NC(=O)c2ccc3nsnc3c2)cc1"
Data returned: 18.4

---

target: Large T antigen (Simian virus 40) (UniProt P03070); assay: SV40 large T antigen inhibitors, biochemical (AID 1903); settings: SV40 large T antigen ATPase/helicase inhibition assay; at 20 µM; stronger effect = higher value
Hit rate of the full screen: of about 310,000 compounds, about 1,200 (0.39%) were called active. A selection follows. Measured potencies and affinities stand elsewhere.
test.readout: inhibition (%)
Record the value in %, omitting the unit from your answer.

Record excerpt, results attached:
| compound | units.of.measure | quantitative.readout |
| --- | --- | --- |
| Cc1ccc(C(=O)OCC(=O)N2CC(C)CC(C)C2)cc1S(=O)(=O)N1CCOCC1 (stereo not given) | % | -0.25 |
| Cc1ccsc1C(=O)OCC(=O)NCc1ccc2c(c1)OCO2 | % | 20.1 |
| Cc1ccccc1Cn1cnc2c(NS(C)(=O)=O)c(C)c(C)cc21 | % | 0.14 |
| COc1cc(/C=C2/NC(=O)N(CC(=O)Nc3cccc(C)c3)C2=O)ccc1OCC(N)=O | % | 6.55 |
| CCCCc1c(C(=O)O)cc(OC)cc1C(=O)O | % | 12.1 |

Data request: Specify reported inhibition for the compound shown: C=CCC(C#Cc1ccc(C)cc1)N(CC)CC (stereo not given)
Data returned: 2.04

Data request: Specify reported inhibition for the compound shown: Cc1ccc(S(=O)(=O)/C(C#N)=C/c2c(N3CC(C)OC(C)C3)nc3c(C)cccn3c2=O)cc1 (stereo not given)
Data returned: 23.9

Data request: Specify reported inhibition for the compound shown: "Cc1cccc(N=Cc2c(O)cc(C)oc2=O)c1"
Data returned: 7.74

Data request: Specify reported inhibition for the compound shown: "CCCCCCCCCC[n+]1cccc2c3ccccc3ccc21"
Data returned: 23.8

Data request: Specify reported inhibition for the compound shown: "Oc1c(Cl)cc(Cl)cc1C=Nc1ccc(N2CCOCC2)cc1"
Data returned: 15.7

Data request: Specify reported inhibition for the compound shown: "O=C1NN(c2cccc(Br)c2)C(=O)/C1=C\c1ccccc1"
Data returned: 26.7

Data request: Specify reported inhibition for the compound shown: "Nc1nc(SCc2cccc([N+](=O)[O-])c2)n[nH]1"
Data returned: 4.99

Data request: Specify reported inhibition for the compound shown: "O=C1COc2ccc(C(=O)COC(=O)c3cc(S(=O)(=O)NCc4ccccc4)ccc3O)cc2N1"
Data returned: 13
